method-description: Cmax in fasted healthy human plasma at 400 mg administered as single dose suspension 5 mins before consumption of high fat meal
Type: ADME, organism-based
Parameters: dose 400 mg
measured-property: Cmax (ng/mL)
Express your answer in ng/mL, writing the number without its unit.

Could you share which Cmax value was measured for `CC[C@@H]([C@H](C)O)n1ncn(-c2ccc(N3CCN(c4ccc(OC[C@@H]5CO[C@@](Cn6cncn6)(c6ccc(F)cc6F)C5)cc4)CC3)cc2)c1=O` ?
274

###

method-description: Tmax in fasted healthy human at 400 mg administered as single dose suspension
Type: ADME, organism-based
measurement-context: in vivo
measured-property: Tmax (h)
Your answer is read as h, so omit the unit and give the number.

Requested field: Tmax. Item: `CC[C@@H]([C@H](C)O)n1ncn(-c2ccc(N3CCN(c4ccc(OC[C@@H]5CO[C@@](Cn6cncn6)(c6ccc(F)cc6F)C5)cc4)CC3)cc2)c1=O`
5

###

method-description: Apparent total body clearance in fasted healthy human at 400 mg administered as single dose suspension after consumption of high fat meal
Type: ADME, organism-based
measurement-context: in vivo
measured-property: CL/F (mL/min)
Numbers only; they are read as mL/min.

# CL/F lookup, item `CC[C@@H]([C@H](C)O)n1ncn(-c2ccc(N3CCN(c4ccc(OC[C@@H]5CO[C@@](Cn6cncn6)(c6ccc(F)cc6F)C5)cc4)CC3)cc2)c1=O`
395

###

method-description: Tmax in fasted healthy human at 400 mg administered as single dose suspension 5 mins before consumption of high fat meal
Assay type: ADME, organism-based
measurement-context: in vivo
measured-property: Tmax (h)
Only the number, expressed in h, is required.

Tmax for CC[C@@H]([C@H](C)O)n1ncn(-c2ccc(N3CCN(c4ccc(OC[C@@H]5CO[C@@](Cn6cncn6)(c6ccc(F)cc6F)C5)cc4)CC3)cc2)c1=O [POSACONAZOLE] ?
7

###

method-description: Apparent volume of distribution in healthy human at 400 mg administered as single dose suspension coadministered with nutritional supplement
Assay type: ADME, organism-based
measurement-context: in vivo
measured-property: Vd/F

Look up Vd/F for this compound: CC[C@@H]([C@H](C)O)n1ncn(-c2ccc(N3CCN(c4ccc(OC[C@@H]5CO[C@@](Cn6cncn6)(c6ccc(F)cc6F)C5)cc4)CC3)cc2)c1=O [POSACONAZOLE]
1660 L

###

method-description: Tmax in fasted healthy human at 400 mg administered as single dose suspension after 20 mins after consumption of high fat meal
Assay type: ADME, organism-based
measurement-context: in vivo
measured-property: Tmax (h)
Give the quantity in h, number only.

// Tmax lookup, key: `CC[C@@H]([C@H](C)O)n1ncn(-c2ccc(N3CCN(c4ccc(OC[C@@H]5CO[C@@](Cn6cncn6)(c6ccc(F)cc6F)C5)cc4)CC3)cc2)c1=O`
6

###

method-description: Cmax in fasted healthy human plasma at 400 mg BID, po administered as suspension for 7 days
Assay type: ADME, organism-based
Parameters: dose 400 mg, route oral
measured-property: Cmax
Note to self: number, then unit, no commentary.

Which Cmax value belongs to CC[C@@H]([C@H](C)O)n1ncn(-c2ccc(N3CCN(c4ccc(OC[C@@H]5CO[C@@](Cn6cncn6)(c6ccc(F)cc6F)C5)cc4)CC3)cc2)c1=O [POSACONAZOLE] ?
982 ng/mL

###

method-description: Tmax in fasted healthy human at 200 mg QID, po administered as suspension for 7 days
Assay type: ADME, organism-based
measurement-context: in vivo
measured-property: Tmax (h)
Give the value in h but do not write h after it.

Any idea what Tmax was measured for CC[C@@H]([C@H](C)O)n1ncn(-c2ccc(N3CCN(c4ccc(OC[C@@H]5CO[C@@](Cn6cncn6)(c6ccc(F)cc6F)C5)cc4)CC3)cc2)c1=O [POSACONAZOLE] ?
4

###

method-description: Tmax in fasted healthy human at 400 mg administered as single dose suspension coadministered with acidic carbonated beverage and proton pump inhibitor
Format: ADME, organism-based
measurement-context: in vivo
measured-property: Tmax (h)
Quick reminder: number only, in h, skip the unit.

Recorded Tmax of `CC[C@@H]([C@H](C)O)n1ncn(-c2ccc(N3CCN(c4ccc(OC[C@@H]5CO[C@@](Cn6cncn6)(c6ccc(F)cc6F)C5)cc4)CC3)cc2)c1=O` , please.
6

###

method-description: Apparent total body clearance in fasted healthy human at 400 mg administered as single dose suspension after 20 mins after consumption of high fat meal
Assay type: ADME, organism-based
measurement-context: in vivo
measured-property: CL/F (mL/min)
All answers are understood in mL/min, so give the number only.

For `CC[C@@H]([C@H](C)O)n1ncn(-c2ccc(N3CCN(c4ccc(OC[C@@H]5CO[C@@](Cn6cncn6)(c6ccc(F)cc6F)C5)cc4)CC3)cc2)c1=O` , what is its reported CL/F?
395

###

method-description: Half life in fasted healthy human at 400 mg BID, po administered as suspension for 7 days
Type: ADME, organism-based
measurement-context: in vivo
measured-property: half-life (min)
# output: bare number, implied unit min

I have this compound here, CC[C@@H]([C@H](C)O)n1ncn(-c2ccc(N3CCN(c4ccc(OC[C@@H]5CO[C@@](Cn6cncn6)(c6ccc(F)cc6F)C5)cc4)CC3)cc2)c1=O [POSACONAZOLE] , and I need its recorded half-life.
1540

###

method-description: Cmax in fasted healthy human plasma at 400 mg administered as single dose suspension coadministered with acidic carbonated beverage and proton pump inhibitor
Assay type: ADME, organism-based
Design: dose 400 mg
measured-property: Cmax (ng/mL)
Express your answer in ng/mL, writing the number without its unit.

What Cmax value was documented for this compound, `CC[C@@H]([C@H](C)O)n1ncn(-c2ccc(N3CCN(c4ccc(OC[C@@H]5CO[C@@](Cn6cncn6)(c6ccc(F)cc6F)C5)cc4)CC3)cc2)c1=O` ?
93.3

###

method-description: Tmax in fasted healthy human at 400 mg BID, po administered as suspension for 7 days
Assay type: ADME, organism-based
measurement-context: in vivo
measured-property: Tmax (h)
Lab book: enter the figure in h, no units written.

Look at this molecule and give its reported Tmax. CC[C@@H]([C@H](C)O)n1ncn(-c2ccc(N3CCN(c4ccc(OC[C@@H]5CO[C@@](Cn6cncn6)(c6ccc(F)cc6F)C5)cc4)CC3)cc2)c1=O [POSACONAZOLE]
6

###

method-description: Apparent total body clearance in healthy human at 400 mg administered as single dose suspension coadministered with nutritional supplement
Assay type: ADME, organism-based
measurement-context: in vivo
measured-property: CL/F (mL/min)
Give the value, in units of mL/min, as a plain number.

Entry under review: `CC[C@@H]([C@H](C)O)n1ncn(-c2ccc(N3CCN(c4ccc(OC[C@@H]5CO[C@@](Cn6cncn6)(c6ccc(F)cc6F)C5)cc4)CC3)cc2)c1=O` . Reported CL/F?
823

###

method-description: Half life in fasted healthy human at 400 mg administered as single dose suspension coadministered with acidic carbonated beverage
Format: ADME, organism-based
measurement-context: in vivo
measured-property: half-life (h)
Please state the figure in h; there is no need to write the unit.

Any idea what half-life was measured for `CC[C@@H]([C@H](C)O)n1ncn(-c2ccc(N3CCN(c4ccc(OC[C@@H]5CO[C@@](Cn6cncn6)(c6ccc(F)cc6F)C5)cc4)CC3)cc2)c1=O` ?
25.2

###

method-description: AUC in healthy human at 400 mg administered as single dose suspension coadministered with nutritional supplement
Type: ADME, organism-based
measurement-context: plasma
measured-property: AUC
Answer as a quantity: numeral, then unit.

Fill in: AUC of `CC[C@@H]([C@H](C)O)n1ncn(-c2ccc(N3CCN(c4ccc(OC[C@@H]5CO[C@@](Cn6cncn6)(c6ccc(F)cc6F)C5)cc4)CC3)cc2)c1=O` is ___
8.96 µg·h/mL

###

method-description: Apparent total body clearance in fasted healthy human at 400 mg administered as single dose suspension 5 mins before consumption of high fat meal
Type: ADME, organism-based
measurement-context: in vivo
measured-property: CL/F
Please provide the amount together with its unit, number first.

Recorded CL/F for `CC[C@@H]([C@H](C)O)n1ncn(-c2ccc(N3CCN(c4ccc(OC[C@@H]5CO[C@@](Cn6cncn6)(c6ccc(F)cc6F)C5)cc4)CC3)cc2)c1=O` , please?
957 mL/min

###

method-description: Half life in fasted healthy human at 400 mg administered as single dose suspension after 20 mins after consumption of high fat meal
Format: ADME, organism-based
measurement-context: in vivo
measured-property: half-life
Be sure to follow the number with its unit.

Name the reported half-life value associated with the compound `CC[C@@H]([C@H](C)O)n1ncn(-c2ccc(N3CCN(c4ccc(OC[C@@H]5CO[C@@](Cn6cncn6)(c6ccc(F)cc6F)C5)cc4)CC3)cc2)c1=O`
22.6 h

###

method-description: Half life in healthy human at 200 mg QID, po administered as suspension for 7 days coadministered with nutritional supplement
Format: ADME, organism-based
measurement-context: in vivo
measured-property: half-life (h)
Please reply with the bare figure in h and do not write the unit itself.

Param item = `CC[C@@H]([C@H](C)O)n1ncn(-c2ccc(N3CCN(c4ccc(OC[C@@H]5CO[C@@](Cn6cncn6)(c6ccc(F)cc6F)C5)cc4)CC3)cc2)c1=O` ; retrieve measured half-life.
27.8

Reference source: ChEMBL document CHEMBL1671645
